- protocol-description: Plasma pharmacokinetics of emodepside, single ascending dose (SAD) and food effect study
- Format: in vivo, human
- condition-label: human, in vivo, po, 10 mg, SAD, single oral 10 mg LSF Fed; plasma, HPLC-MS/MS; mean
test-readout: Cmax (ng/mL)
Your answer should be a plain number; it is taken to be in ng/mL.

Sure, the documented Cmax for CC(C)C[C@H]1C(=O)O[C@H](Cc2ccc(N3CCOCC3)cc2)C(=O)N(C)[C@@H](CC(C)C)C(=O)O[C@H](C)C(=O)N(C)[C@@H](CC(C)C)C(=O)O[C@H](Cc2ccc(N3CCOCC3)cc2)C(=O)N(C)[C@@H](CC(C)C)C(=O)O[C@H](C)C(=O)N1C [emodepside] is 71.9

###

- protocol-description: Plasma pharmacokinetics of emodepside, single ascending dose (SAD) and food effect study
- Format: in vivo, human
- condition-label: human, in vivo, po, 5 mg, SAD, single oral 5 mg LSF fasting; plasma; median (range)
test-readout: Tmax (h)
Your answer should be a plain number; it is taken to be in h.

Sure, the documented Tmax for CC(C)C[C@H]1C(=O)O[C@H](Cc2ccc(N3CCOCC3)cc2)C(=O)N(C)[C@@H](CC(C)C)C(=O)O[C@H](C)C(=O)N(C)[C@@H](CC(C)C)C(=O)O[C@H](Cc2ccc(N3CCOCC3)cc2)C(=O)N(C)[C@@H](CC(C)C)C(=O)O[C@H](C)C(=O)N1C [emodepside] is 1

###

- protocol-description: Plasma pharmacokinetics of emodepside, multiple ascending dose (MAD) study
- Type: in vivo, human
- condition-label: human, plasma, po, 10 mg, 10 mg BID LSF fasting, Day 10, plasma, HPLC-MS/MS, mean (CV%)
- Protocol: Emodepside and placebo were supplied as a LSF and a standard immediate‐release (IR) tablet. The LSF was a 0.1% (w/v) solution containing 1 mg emodepside/mL. […] Emodepside plasma concentrations were determined by a validated high performance liquid chromatography–tandem mass spectrometry assay, using a Alltima C18 5 μm 150 mm x 2.1 mm column and an Applied Biosystems API4000 Turbo Ion Spray detector using positive ion mode. […] The lower limit of quantitation for emodepside in plasma was 1 ng/mL. […]
test-readout: AUC 0–24 (ng·h/mL)
Your answer should be a plain number; it is taken to be in ng·h/mL.

Sure, the documented AUC 0–24 for CC(C)C[C@H]1C(=O)O[C@H](Cc2ccc(N3CCOCC3)cc2)C(=O)N(C)[C@@H](CC(C)C)C(=O)O[C@H](C)C(=O)N(C)[C@@H](CC(C)C)C(=O)O[C@H](Cc2ccc(N3CCOCC3)cc2)C(=O)N(C)[C@@H](CC(C)C)C(=O)O[C@H](C)C(=O)N1C [emodepside] is 4900

###

- protocol-description: Plasma pharmacokinetics of emodepside, single ascending dose (SAD) and food effect study
- Format: in vivo, human
- condition-label: human, in vivo, po, 2.5 mg, SAD, single oral 2.5 mg LSF fasting; plasma, HPLC-MS/MS; mean
test-readout: AUC 0–24 h (ng·h/mL)
Your answer should be a plain number; it is taken to be in ng·h/mL.

Sure, the documented AUC 0–24 h for CC(C)C[C@H]1C(=O)O[C@H](Cc2ccc(N3CCOCC3)cc2)C(=O)N(C)[C@@H](CC(C)C)C(=O)O[C@H](C)C(=O)N(C)[C@@H](CC(C)C)C(=O)O[C@H](Cc2ccc(N3CCOCC3)cc2)C(=O)N(C)[C@@H](CC(C)C)C(=O)O[C@H](C)C(=O)N1C [emodepside] is 250

###

- protocol-description: Plasma pharmacokinetics of emodepside, multiple ascending dose (MAD) study
- Assay type: in vivo, human
- condition-label: human, plasma, po, 10 mg, 10 mg OD LSF fasting, Day 10, plasma, HPLC-MS/MS, mean (CV%)
test-readout: AUC 0–24 (ng·h/mL)
Your answer should be a plain number; it is taken to be in ng·h/mL.

Sure, the documented AUC 0–24 for CC(C)C[C@H]1C(=O)O[C@H](Cc2ccc(N3CCOCC3)cc2)C(=O)N(C)[C@@H](CC(C)C)C(=O)O[C@H](C)C(=O)N(C)[C@@H](CC(C)C)C(=O)O[C@H](Cc2ccc(N3CCOCC3)cc2)C(=O)N(C)[C@@H](CC(C)C)C(=O)O[C@H](C)C(=O)N1C [emodepside] is 3490

###

- protocol-description: Plasma pharmacokinetics of emodepside, single ascending dose (SAD) and food effect study
- Type: in vivo, human
- condition-label: human, in vivo, po, 5 mg, SAD, single oral 5 mg LSF fasting; plasma; ln2/λz; mean; read-out: Terminal t ½ (converted)
test-readout: half-life (days)
Your answer should be a plain number; it is taken to be in days.

Sure, the documented half-life for CC(C)C[C@H]1C(=O)O[C@H](Cc2ccc(N3CCOCC3)cc2)C(=O)N(C)[C@@H](CC(C)C)C(=O)O[C@H](C)C(=O)N(C)[C@@H](CC(C)C)C(=O)O[C@H](Cc2ccc(N3CCOCC3)cc2)C(=O)N(C)[C@@H](CC(C)C)C(=O)O[C@H](C)C(=O)N1C [emodepside] is 17.3
